B1: CPEB3 Ribozyme (parent)
chain: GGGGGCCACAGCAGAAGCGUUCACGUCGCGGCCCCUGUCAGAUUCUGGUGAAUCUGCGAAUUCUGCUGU

Variants of: B1
assay: self-cleavage, relative activity (ratio to wild type); higher = more cleavage; co-transcriptional
Could you label it Met if measured self-cleavage is 0.8 or higher, and Not met otherwise?

| variant | class_assignment |
| --- | --- |
| U36G U69G | Not met |
| A15C U62G | Met |
| C9U G47U | Met |
| G3U U36A | Not met |
| C32G U69A | Not met |
| U20C U43A | Not met |
| G11C U44G | Not met |
| G4C A42G | Not met |
| C18A C34G | Not met |
| G25A G65C | Not met |
| C12G G68C | Met |
| G19C U49A | Not met |
| C57G C63U | Not met |
| G11A A13G | Not met |
| A8C G65C | Not met |
| A15C C45G | Met |
| G3U G50U | Not met |
| C35A U36A | Not met |
| U36G G65U | Not met |
| G30A A59G | Not met |
| G4C U61A | Not met |
| U20G G48C | Not met |
| A8G U69C | Met |
| C27G G31U | Not met |
| C35U U61C | Not met |
| A42C A60G | Not met |
| U43C A51G | Met |
| A23C G47A | Met |
| A16C C34A | Not met |
| G25U C34A | Not met |
| G58C A60U | Not met |
| G3U A42G | Not met |
| G11C G56C | Not met |
| C33G C34U | Not met |
| U20G G58C | Not met |
| C57G A59C | Not met |
| A15G U21C | Met |
| C35A A40G | Not met |
| A13C G48U | Met |
| U49G U64G | Met |
| C12U A23C | Met |
| A15G A40U | Met |
| G1U C12A | Not met |
| C24G G47C | Not met |
| U61A C66U | Met |
| C29A C63U | Not met |
| C9G U44G | Met |
| G30C C63A | Not met |
| A8C G50A | Met |
| C24A U62G | Not met |
| G5A G37A | Not met |
| A16U U43C | Met |
| G17C C54U | Not met |
| A42C G50U | Met |
| G3U C12G | Not met |
| C32G A42G | Not met |
| U61C G68U | Met |
| G11U U64C | Not met |
| C7G U26A | Not met |
| C7U G30A | Met |
| G47A G48U | Met |
| U49G G68C | Met |
| C9G U53A | Met |
| G2U C63U | Not met |
| A10U G48C | Met |
| G31U A59C | Not met |
| A51G G56A | Met |
| G17A A42G | Not met |
| U49C A60G | Met |
| C63U G68C | Met |
| C39U A51C | Not met |
| G31A C63A | Not met |
| U38A U67C | Met |
| U64A U67C | Met |
| U62G U67C | Not met |
| U62A U64G | Not met |
| G14A C63G | Not met |
| C9A U62G | Met |
| C32U A40G | Met |
| C9U C27G | Not met |
| G4A U20C | Not met |
| G25A G28A | Not met |
| A8U A10C | Met |
| U49C | Met |
| C32A G37U | Not met |
| C29A C54G | Not met |
| C27G G37A | Not met |
| G19U C63G | Not met |
| C24U G28C | Not met |
